Kindly state RP-LC retention time for each of the entries shown.
# TEST_METHOD_NOTES: gradient 5% acetonitrile 3 min, to 50% in 2 min, to 85% in 15 min, held 3 min, 100 µL/min
# MEASUREMENT_CONTEXT: column: Zorbax Extend-C18 2.1 x 50 mm; eluents: water / acetonitrile, 0.1% formic acid
Give bare numbers, in s.

(Q) Using the record for CCCNC(=O)C1CCCN(S(=O)(=O)c2cc(-c3noc(C4CCCC4)n3)cs2)C1 (centres undefined) , report its RP-LC retention time.
(A) 1050

(Q) Using the record for CN(C)C(=O)c1ccc2c(c1)nc(CN1CCN(C(=O)c3ccco3)CC1)n2C , report its RP-LC retention time.
(A) 575

(Q) Using the record for COc1ccccc1-n1nnc(C(=O)Nc2nc(C)cs2)c1-c1ccccn1 , report its RP-LC retention time.
(A) 758

(Q) Using the record for CCc1ccccc1NC(=O)C1CCCN1S(=O)(=O)c1cc2c(cc1C)NC(=O)CO2 (centres undefined) , report its RP-LC retention time.
(A) 821

(Q) Using the record for CCCS(=O)(=O)N1CCCC(c2nc(C(C)C)no2)CCNC(=O)CC1 (centres undefined) , report its RP-LC retention time.
(A) 720

(Q) Using the record for Cc1cc(C)c2c(n1)sc1c(N3CCC(C(=O)N4CCN(c5ccccn5)CC4)CC3)ncnc12 , report its RP-LC retention time.
(A) 668

Could I get RP-LC retention time for every one of these entries?
1. O=C(CN1CCN(C(=O)Nc2ccc(Br)cc2)CC1=O)NCc1ccco1
2. CCCn1cc(CCNS(=O)(=O)Cc2ccc(F)cc2Cl)c2cccnc21
3. CC(=O)N1CCN(C2=NC(=O)/C(=C\c3ccc(O)c([N+](=O)[O-])c3)S2)CC1
4. CCCCn1c(=O)c2ccccc2n(Cc2nc(-c3ccc4c(c3)OCO4)no2)c1=O
5. CCCCNC(=O)CCc1[nH]c(C)c(C(=O)OCC)c1C
6. O=C1CCC(C(=O)N2CCC(c3c[nH]c4ccccc34)(c3c[nH]c4ccccc34)CC2)N1 (centres undefined)

(A)
1: 718; 2: 900; 3: 589; 4: 1130; 5: 762; 6: 711

Could I get RP-LC retention time for every one of these entries?
1. CCCN(CC1CCOC1)C(=O)Nc1ccc(C)cc1Cl (centres undefined)
2. CC(C)NC(=O)c1cc(C(C)(C)C)[nH]n1
3. COc1ccc(-c2noc(Cn3nc(-c4ccccc4)ccc3=O)n2)cc1
4. Cc1cccc(-c2nnc(-c3ccc(Cl)c(S(=O)(=O)N(C)C)c3)o2)c1
5. O=C(O)c1cccc(Nc2c(-c3cccc(O)c3)nc3cnccn23)c1

(A)
[902, 710, 953, 1040, 633]

Could I get RP-LC retention time for every one of these entries?
1. c1ccc(CCc2nc(-c3ccc4c(c3)nnn4CCN3CCOCC3)no2)cc1
2. Cn1ncc2c(Nc3cccc(Cl)c3)nc(N3CCCC3)nc21
3. COc1ccc(C(CC(=O)NCCN2CCCC2)N2Cc3ccccc3C2=O)cc1OC (centres undefined)
4. Cc1onc(-c2ccccn2)c1C(=O)NCCCN1CCN(C2CCCCC2)CC1

(A)
[687, 978, 609, 582]

Could I get RP-LC retention time for every one of these entries?
1. CCN(CC)S(=O)(=O)c1ccc2nc(N3CCN(C4CCCCC4)CC3)cnc2c1
2. Cc1cc(=O)n(CC(=O)Nc2cccc(C)c2C)c(N)n1

(A)
1. 674
2. 600

(Q) Using the record for Cc1sc(-c2nnc(C3CC3)o2)cc1NC(=O)C1CC1 , report its RP-LC retention time.
(A) 819
